These data points were gathered from the METLIN SMRT retention time set (Domingo-Almenara et al. 2019).

- measurement description: gradient 5% acetonitrile 3 min, to 50% in 2 min, to 85% in 15 min, held 3 min, 100 µL/min
- assay conditions: column: Zorbax Extend-C18 2.1 x 50 mm; eluents: water / acetonitrile, 0.1% formic acid
assay metric: RP-LC retention time (s)

Reference set, count: 6
CC(=O)Nc1ccc(Cc2nc(-c3ccc4c(c3)oc(=O)n4C)no2)cc1 :: 729
Cn1cnc(C(=O)N2CC(F)(F)C[C@H]2c2nc(C3CC3)no2)c1 :: 667
N#Cc1cccc(-c2cn3c(n2)N(C(=O)c2cccs2)CCC3)c1 :: 684
O=C(Nc1c(-c2ccc(F)cc2)nc2ccccn12)c1ccc(Cl)cc1Cl :: 739
COc1cccc(C2CC(c3ccc(C)c(C)c3)=NC3(CCN(C(C)=O)CC3)N2)c1O (centres undefined) :: 694
CC1CCCN(C(=O)c2cc3c(s2)CCN(C(=O)c2ccccc2)C3)C1 (centres undefined) :: 589

a: COC(=O)c1ccc(NC(=O)CN2CCc3[nH]c4c(C)ccc(F)c4c(=O)c3C2)cc1
b: COc1ccc(N2CCN(S(=O)(=O)c3cc(-c4cc(C(F)(F)F)on4)cs3)CC2)cc1
Out of a and b , name the one with the higher RP-LC retention time. Please indicate the selected item by its label.
b
(b: 1190 s, a: 604 s)
